System: HIV-1 LTR-III G-quadruplex (FAM/TAMRA-labeled LTR-III)
Test: FRET melting assay, LTR-III G4
Format: binding
Settings: Table S1 primary screening, ligand:ODN 50:1, singlicate
value type: LTR-III ΔTm (°C)

> print(dat)
                                   compound  measurement
1            CCC1=NC(=Cc2ccc(O)cc2)C(=O)N1C         -0.1
2             CC1=NC(=Cc2ccc(O)cc2)C(=O)N1C          0.5
3    CN1C(=O)C(=Cc2ccc(O)cc2)N=C1C=Cc1cccs1         -0.1
4  CC(C)OC(=O)c1noc(C(=O)NCc2ccccc2)c1-c1ccc(C(C)C)cc1 [SA 342B]         -0.5
5  COc1cc(O)ccc1/C=C1N=C(/C=C(\C#N)c2cccs2)N(C)C\1=O            2

---

System: HIV-1 LTR-III G-quadruplex (FAM/TAMRA-labeled LTR-III)
Assay: FRET melting assay, LTR-III G4
Format: binding
Settings: Table S1 primary screening, ligand:ODN 50:1, singlicate
value type: LTR-III ΔTm (°C)

> print(dat)
                                    compound   value.type  measurement
 1  COc1cc(/C=C2N=C(/C=C/c3cc(Cl)nc(Cl)c3)N(C)C\2=O)cc(OC)c1O [N 960a]  LTR-III ΔTm          5.3
 2  COc1ccc(NC(=O)c2onc(C(=O)OC(C)C)c2-c2ccc(OC)cc2)cc1  LTR-III ΔTm          0.2
 3  CN1C(=O)C(=Cc2ccc(O)cc2)N=C1C=Cc1ccc(C(=O)O)cc1  LTR-III ΔTm          0.8
 4            COc1cccc(C=C2N=C(C)N(C)C2=O)c1  LTR-III ΔTm         -0.2
 5       NC(=C1N=C2C=CC=CN2C1=O)c1ccc(Cl)cc1  LTR-III ΔTm          0.3
 6  COc1cc(/C=C2N=C(/C=C/c3c(F)c(F)nc(F)c3F)N(C)C\2=O)cc(OC)c1O  LTR-III ΔTm            1
 7         CSC1=NC(=Cc2ccc(N(C)C)cc2)C(=O)N1  LTR-III ΔTm          0.1
 8        CC1=NC(=Cc2cccs2)C(=O)N1C [N 1021]  LTR-III ΔTm          0.3
 9  COc1ccc(C=C2N=C(C=C(O)c3cccs3)N(C)C2=O)cc1  LTR-III ΔTm            0
10   CCC(=O)NC(=Cc1c[nH]c2cccc(C)c12)C(=O)NC  LTR-III ΔTm         -0.1
11  CC(C)OC(=O)c1noc(=O)c(O)c1-c1ccc(C(C)C)cc1 [SA 300D]  LTR-III ΔTm         -1.2
12  COc1ccc(C=CC2=NC(=Cc3ccnc4ccccc34)C(=O)N2C)cc1 [AL 122]  LTR-III ΔTm         -0.6
13            CC(=O)NC(=Cc1ccc(O)cc1)C(=O)NO  LTR-III ΔTm            0
14  CCN(CC)c1ccc(C=C2N=C(C)N(C)C2=O)cc1 [M 1661]  LTR-III ΔTm          0.4
15  CNC(=O)C(=Cc1ccc(O)c(CO)c1)NC(=O)c1ccccc1  LTR-III ΔTm         -0.6
16            CC1=NC(=Cc2cccc(F)c2O)C(=O)N1C  LTR-III ΔTm            0
17           COc1cc(C=C2N=C(C)N(C)C2=O)ccc1O  LTR-III ΔTm         -0.2
18           CC1=NC(=Cc2ccc(O)cc2)C(=O)N1CCO  LTR-III ΔTm          0.3
19  CN1C(=O)C(=Cc2ccc(O)cc2)N=C1CCCCCNC(=O)OC(C)(C)C  LTR-III ΔTm         -0.1
20          C#CCN1C(=O)C(=Cc2ccc(O)cc2)N=C1C  LTR-III ΔTm          0.2
21  CN1C(=O)C(=Cc2ccc(O)cc2)N=C1C=Cc1ccccc1 [M 996a]  LTR-III ΔTm          0.1

---

System: HIV-1 LTR-III G-quadruplex (FAM/TAMRA-labeled LTR-III)
Test: FRET melting assay, LTR-III G4
Type: binding
Details: Table S1 primary screening, ligand:ODN 50:1, singlicate
Threshold check on LTR-III ΔTm: at or above -0.2 °C gives Y, strictly below gives N.

> print(dat)
                                    compound  qualitative.label
 1  CC1=NC(=Cc2ccc(O)c([N+](=O)[O-])c2)C(=O)N1C                  N
 2        CCC(=O)Oc1ccc(C=C2N=C(CC)OC2=O)cc1                  N
 3  CC1=NC(=Cc2cc(C(C)(C)C)c(O)c(C(C)(C)C)c2)C(=O)N1C                  Y
 4           COc1ccc(N)cc1C=C1N=C(C)N(C)C1=O                  Y
 5           NC(=C1N=C2C=CC=CN2C1=O)c1ccccc1                  Y
 6  COc1cc(O)cc(OC)c1C=C1N=C(C=Cc2c(F)c(F)nc(F)c2F)N(C)C1=O                  Y
 7  CN1C(=O)C(=Cc2ccc(O)cc2)N=C1C=Cc1ccc(O)c([N+](=O)[O-])c1                  Y
 8  CN1C(=O)C(=Cc2ccc(O)cc2)N=C1C=CC=Cc1ccccc1                  Y
 9  CN(C)c1ccc(C(O)(c2ccc(N(C)C)cc2)c2ccccn2)cc1                  N
10  COc1ccc(C=C2N=C(C)N(CCNC(=O)OC(C)(C)C)C2=O)cc1OC [M 2022e]                  Y
11  CN1C(=O)C(=Cc2ccc(O)c(O)c2)N=C1C=Cc1ccccc1 [M 2499b]                  Y
12  CN1C(=O)C(=Cc2ccc(O)cc2)N=C1C=Cc1ccccc1O                  Y
13  CN1C(=O)/C(=C/c2ccc(O)cc2)N=C1/C=C/c1ccc(O)cc1                  Y
14        COc1ccc(C=C2N=C3C(=O)NCCN3C2=O)cc1                  Y
15  CN1C(=O)C(=Cc2ccc(OC(=O)c3ccccc3)cc2)N=C1C=C(OC(=O)c1ccccc1)c1ccccc1                  N
16       COc1cc(O)cc(OC)c1C=C1N=C(C)N(C)C1=O                  Y
17          CC1=NC(=Cc2ccccc2)C(=O)N1CC(N)=O                  N

---

System: HIV-1 LTR-III G-quadruplex (FAM/TAMRA-labeled LTR-III)
Experiment: FRET melting assay, LTR-III G4
Type: binding
Details: Table S1 primary screening, ligand:ODN 50:1, singlicate
value type: LTR-III ΔTm (°C)

> print(dat)
                                    compound   value.type  measurement
 1  CN1C(=O)C(=Cc2ccc(SSc3ccc(C=C4N=C(C=Cc5cc(Br)c(O)c(Br)c5)N(C)C4=O)cc3)cc2)N=C1C=Cc1cc(Br)c(O)c(Br)c1  LTR-III ΔTm          0.1
 2        CC1=NC(=Cc2cc(F)c(O)c(F)c2)C(=O)N1  LTR-III ΔTm         -0.9
 3  CCC1=NC(=Cc2ccc(O[Si](c3ccccc3)(c3ccccc3)C(C)(C)C)cc2)C(=O)N1O[Si](c1ccccc1)(c1ccccc1)C(C)(C)C  LTR-III ΔTm         -0.3
 4  CC(C)OC(=O)c1noc(C(=O)NCc2ccccc2)c1-c1cccs1 [SA 330E]  LTR-III ΔTm         -0.7
 5  CCC(=O)n1cc(C=C2N=C(CC)OC2=O)c2c(C)cccc21  LTR-III ΔTm            0
 6    COc1ccc(C=C2N=C3C(=O)NC(=O)CN3C2=O)cc1  LTR-III ΔTm          0.4
 7  CCOC(=O)/C=C/c1ccc(O[Si](c2ccccc2)(c2ccccc2)C(C)(C)C)cc1  LTR-III ΔTm         -0.5
 8  CCN(CC)c1ccc(C=C2N=C(C)N(CCNC(=O)OC(C)(C)C)C2=O)cc1 [M 2026c]  LTR-III ΔTm          0.2
 9  CN1C(=O)C(=Cc2ccc(O)cc2O)N=C1C=Cc1cc(Br)c(O)c(Br)c1  LTR-III ΔTm          0.4
10          CC1=NC(=Cc2cccc3ccccc23)C(=O)N1C  LTR-III ΔTm          0.4
11  CCN(CC)c1ccc(C=C2N=C(C)N(CCCC(=O)O)C2=O)cc1 [M 820]  LTR-III ΔTm          0.1
12  CNC(=O)C(=Cc1ccncc1)N=P(c1ccccc1)(c1ccccc1)c1ccccc1  LTR-III ΔTm         -0.6
13      CN1C(=O)C(=Cc2ccncc2)N=C1C=Cc1ccncc1  LTR-III ΔTm          0.9
14          COc1cc(C=C2SC(=S)NC2=O)cc(OC)c1O  LTR-III ΔTm         -0.6
15  CC(=O)Oc1ccc(C=C2N=C(C=Cc3ccncc3)N(C)C2=O)cc1 [M 1009B]  LTR-III ΔTm          0.5
16  CC(C)OC(=O)c1noc(C(=O)NCc2ccccc2)c1-c1cccc2ccccc12 [SA 343B]  LTR-III ΔTm         -0.9
17           CCC1=NC(=Cc2ccc(OC)cc2)C(=O)N1C  LTR-III ΔTm         -0.4
18  COc1cc(C=CC2=NC(=Cc3ccc(O)cc3)C(=O)N2C)cc(OC)c1O  LTR-III ΔTm          0.1
19  CC(C)OC(=O)c1noc(C(=O)N2CCCC2)c1-c1ccc(N(C)C)cc1  LTR-III ΔTm         -0.4
